# Test system: Plasmodium falciparum parasite
# assay procedure: Whole cell assay: whole cell activity against the parasite
# Type: cell-based
# experimental parameters: Plasmodium falciparum
pIC50: −log10 of the molar value. Counter-ions that a name gives are not always drawn.
Measured pIC50 of individual entries

Request: Fill in the blank: the reported pIC50 of CC1CCC(N(NC(=O)c2ccc(CN3CCN(C)CC3)cc2)c2nc(C#N)ncc2Br)C1 (mixture of isomers) [Example 26, trifluoroacetate] is ____.
Response: 6.82 to 7.82

Request: # iterate: CN1CCN(C(=O)C2CCN(Cc3ccc(C(=O)NN(c4nc(C#N)ncc4Br)C4CCOCC4)cc3)CC2)CC1 [Example 32, trifluoroacetate]
Response: 6.82 to 7.82

Request: # iterate: CC(=O)N1CCC(N(NC(=O)c2ccc(CN3CCC(C(=O)N4CCN(C)CC4)CC3)cc2)c2nc(C#N)ncc2Br)CC1 [Example 49, trifluoroacetate]
Response: 6.82 to 7.82

Request: # iterate: CN1CCCC(CN2CCN(Cc3ccc(C(=O)NN(c4nc(C#N)ncc4Br)C4CCCC4)cc3)CC2)C1 (stereo not drawn) [Example 8, trifluoroacetate]
Response: 7.82 to 8.60

Request: # iterate: CN1CCN(Cc2ccc(C(=O)NN(c3nc(C#N)ncc3Cl)C3CCCCC3)cc2)CC1 [Example 51, trifluoroacetate]
Response: 6.82 to 7.82

Could you now look at the following compound, please?
Request: Fill in the blank: the reported pIC50 of CN1CCN(C(=O)C2CCN(Cc3ccc(C(=O)NN(c4nc(C#N)ncc4Br)C4CCCC4)cc3)CC2)CC1 [Example 9, trifluoroacetate] is ____.
Response: 7.82 to 8.60

* * *

# System: Plasmodium falciparum parasite
# assay procedure: Whole cell assay: whole cell activity against the parasite
# Format: cell-based
# experimental parameters: Plasmodium falciparum
# Source text: […]
pIC50: −log10 of the molar value. Counter-ions that a name gives are not always drawn.
reported metric: pIC50

Before answering, review these 3 worked examples.
Request: What reported pIC50 corresponds to CN1CCN(C2CCN(Cc3ccc(C(=O)NN(c4nc(C#N)ncc4Br)C4CCCC4)cc3)CC2)CC1 [Example 10, trifluoroacetate] on Plasmodium falciparum parasite?
Response: 7.82 to 8.60

Request: # iterate: N#Cc1ncc(Br)c(N(NC(=O)c2ccc(CN3CC(N4CCCC4)C3)cc2)C2CCOCC2)n1 [Example 33, trifluoroacetate]
Response: 6.82 to 7.82

Request: # iterate: CCN(CCCNC(=O)OC(C)(C)C)Cc1ccc(C(=O)NN(c2nc(C#N)ncc2Cl)C2CCCC2)cc1
Response: 7.82 to 8.60

Continuing:
Request: What reported pIC50 corresponds to CN1CCN(C2CCN(Cc3cccc(C(=O)NN(c4nc(C#N)ncc4Br)C4CCCCC4)c3)CC2)CC1 [Example 20, trifluoroacetate] on Plasmodium falciparum parasite?
Response: 7.82 to 8.60

Request: # iterate: CN1CCC(CN2CCN(Cc3cccc(C(=O)NN(c4nc(C#N)ncc4Br)C4CCCC4)c3)CC2)CC1 [Example 15, trifluoroacetate]
Response: 7.82 to 8.60

Request: # iterate: CN1CCN(Cc2ccc(-c3ccc(C(=O)NN(c4nc(C#N)ncc4Br)C4CCCC4)cn3)cc2)CC1 [Example 46, trifluoroacetate]
Response: 7.82 to 8.60

Request: # iterate: CN(C)Cc1ccc(C(=O)NN(c2nc(C#N)ncc2Cl)C2CCCC2)cc1 [Example 54, trifluoroacetate]
Response: 6.82 to 7.82

Request: # iterate: N#Cc1ncc(Br)c(N(NC(=O)c2ccc(CN3CCC(N4CCOCC4)CC3)cc2)C2CCCC2)n1 [Example 6, trifluoroacetate]
Response: 6.82 to 7.82

Request: # iterate: CN(Cc1ccc(C(=O)NN(c2nc(C#N)ncc2Cl)C2CCCC2)cc1)CC(O)CO (stereo not shown) [Example 76, trifluoroacetate]
Response: 6.82 to 7.82

Request: # iterate: CC(C)N(Cc1ccc(C(=O)NN(c2nc(C#N)ncc2Cl)C2CCCC2)cc1)C(C)C [Example 72, trifluoroacetate]
Response: 7.82 to 8.60
